koff: recorded values
# assayed-target: T1, Recombinant hIL-21-Fc (AcroBiosystems) (human, UniProt Q9HBE4 30-162)
# T1 construct: bought; also called rhIL-21; not shown: Fc of the bought reagent, not described
# T1 sequence (Q9HBE4 30-162): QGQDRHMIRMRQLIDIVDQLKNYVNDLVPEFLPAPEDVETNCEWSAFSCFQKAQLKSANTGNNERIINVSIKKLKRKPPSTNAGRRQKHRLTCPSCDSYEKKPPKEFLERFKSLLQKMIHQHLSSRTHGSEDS
# assay-remarks: SPR, Fab on captured rhIL-21-Fc
endpoint-label: koff

INSERT INTO assay_data (binder, test_value) VALUES
  ('ZAP122m4 Fab (Fab, V domains shown, Fab) VH: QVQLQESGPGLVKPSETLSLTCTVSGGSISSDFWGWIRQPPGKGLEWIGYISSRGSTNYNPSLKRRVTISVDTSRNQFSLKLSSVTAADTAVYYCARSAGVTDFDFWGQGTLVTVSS VL: DIQMTQSPSSVSASVGDRVTITCRASQGISSWLAWYQHKPGKAPKLLIYVASSLQSGVPSRFSGSGSGTDFTLTISSLQPEDFATYYCAQANSFPLTFGGGTKVEIK', '0.000253 s⁻¹'),
  ('ZAP122m10 Fab (Fab, V domains shown, Fab) VH: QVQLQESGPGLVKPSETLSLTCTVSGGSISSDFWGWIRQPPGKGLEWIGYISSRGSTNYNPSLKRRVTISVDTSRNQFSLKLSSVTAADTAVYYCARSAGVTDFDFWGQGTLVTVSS VL: DIQMTQSPSSVSASVGDRVTITCRASQGISSWLAWYQHKPGKAPKLLIYVASSLQSGVPSRFSGSGSGTDFTLTISSLQPEDFATYYCQQANSFPATFGGGTKVEIK', '0.000613 s⁻¹'),
  ('ZAP122m6 Fab (Fab, V domains shown, Fab) VH: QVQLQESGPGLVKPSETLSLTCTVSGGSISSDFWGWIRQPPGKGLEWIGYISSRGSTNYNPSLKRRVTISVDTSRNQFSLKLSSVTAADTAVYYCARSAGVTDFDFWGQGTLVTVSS VL: DIQMTQSPSSVSASVGDRVTITCRASQGISSWLAWYQHKPGKAPKLLIYVASSLQSGVPSRFSGSGSGTDFTLTISSLQPEDFATYYCQQAASFPLTFGGGTKVEIK', '1.43e-05 s⁻¹'),
  ('ZAP122m3 Fab (Fab, V domains shown, Fab) VH: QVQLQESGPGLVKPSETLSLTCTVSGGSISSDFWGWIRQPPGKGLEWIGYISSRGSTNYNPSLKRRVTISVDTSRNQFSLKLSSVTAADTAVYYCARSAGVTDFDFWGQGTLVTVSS VL: DIQMTQSPSSVSASVGDRVTITCRASQGISSWLAWYQHKPGKAPKLLIYAASSLQSGVPSRFSGSGSGTDFTLTISSLQPEDFATYYCQQANSFPLTFGGGTKVEIK', '9.3e-05 s⁻¹'),
  ('ZAP122m7 Fab (Fab, V domains shown, Fab) VH: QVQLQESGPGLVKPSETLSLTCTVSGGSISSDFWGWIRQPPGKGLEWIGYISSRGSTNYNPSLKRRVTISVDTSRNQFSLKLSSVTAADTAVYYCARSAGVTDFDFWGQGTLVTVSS VL: DIQMTQSPSSVSASVGDRVTITCRASQGISSWLAWYQHKPGKAPKLLIYVASSLQSGVPSRFSGSGSGTDFTLTISSLQPEDFATYYCQQANAFPLTFGGGTKVEIK', '< 1e-05 s⁻¹'),
  ('ZAP122m26 Fab (Fab, V domains shown, Fab) VH: QVQLQESGPGLVKPSETLSLTCTVSGGSISSDFWGWIRQPPGKGLEWIGYISSRGSTNYNPSLKRRVTISVDTSRNQFSLKLSSVTAADTAVYYCARSAGVTDFAFWGQGTLVTVSS VL: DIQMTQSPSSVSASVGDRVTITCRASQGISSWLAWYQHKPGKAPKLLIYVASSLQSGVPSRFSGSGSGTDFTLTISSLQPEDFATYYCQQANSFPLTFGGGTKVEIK', '0.000701 s⁻¹');
